Reported inhibition values follow for various compounds
target: Integrin alpha-4/beta-1 (Homo sapiens, UniProt P05556+P13612); assay: Inhibition of VCAM-1 binding to integrin alpha4-beta1 in Jurkat cells at 10 uM; assay type: cell-based
Sequence (P05556 whole entry): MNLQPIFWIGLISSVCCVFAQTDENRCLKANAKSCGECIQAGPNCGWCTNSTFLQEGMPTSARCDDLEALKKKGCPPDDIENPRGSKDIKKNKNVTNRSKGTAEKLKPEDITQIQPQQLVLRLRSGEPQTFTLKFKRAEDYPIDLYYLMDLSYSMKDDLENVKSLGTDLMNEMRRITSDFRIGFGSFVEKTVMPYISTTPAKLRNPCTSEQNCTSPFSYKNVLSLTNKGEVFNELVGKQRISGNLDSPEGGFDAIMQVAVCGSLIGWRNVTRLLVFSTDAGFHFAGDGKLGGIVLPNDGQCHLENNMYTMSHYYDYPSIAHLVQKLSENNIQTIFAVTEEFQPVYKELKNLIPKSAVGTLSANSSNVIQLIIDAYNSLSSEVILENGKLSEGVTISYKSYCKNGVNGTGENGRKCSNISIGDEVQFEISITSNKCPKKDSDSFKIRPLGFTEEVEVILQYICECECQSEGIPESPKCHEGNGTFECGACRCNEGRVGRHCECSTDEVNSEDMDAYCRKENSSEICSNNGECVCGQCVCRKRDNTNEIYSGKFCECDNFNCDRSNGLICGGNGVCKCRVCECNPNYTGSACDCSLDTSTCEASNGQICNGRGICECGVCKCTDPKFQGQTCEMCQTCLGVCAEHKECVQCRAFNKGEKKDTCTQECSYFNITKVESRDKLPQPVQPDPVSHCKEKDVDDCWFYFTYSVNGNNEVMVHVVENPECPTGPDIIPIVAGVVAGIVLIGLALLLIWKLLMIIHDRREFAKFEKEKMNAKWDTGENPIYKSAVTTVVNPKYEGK
Sequence (P13612 whole entry): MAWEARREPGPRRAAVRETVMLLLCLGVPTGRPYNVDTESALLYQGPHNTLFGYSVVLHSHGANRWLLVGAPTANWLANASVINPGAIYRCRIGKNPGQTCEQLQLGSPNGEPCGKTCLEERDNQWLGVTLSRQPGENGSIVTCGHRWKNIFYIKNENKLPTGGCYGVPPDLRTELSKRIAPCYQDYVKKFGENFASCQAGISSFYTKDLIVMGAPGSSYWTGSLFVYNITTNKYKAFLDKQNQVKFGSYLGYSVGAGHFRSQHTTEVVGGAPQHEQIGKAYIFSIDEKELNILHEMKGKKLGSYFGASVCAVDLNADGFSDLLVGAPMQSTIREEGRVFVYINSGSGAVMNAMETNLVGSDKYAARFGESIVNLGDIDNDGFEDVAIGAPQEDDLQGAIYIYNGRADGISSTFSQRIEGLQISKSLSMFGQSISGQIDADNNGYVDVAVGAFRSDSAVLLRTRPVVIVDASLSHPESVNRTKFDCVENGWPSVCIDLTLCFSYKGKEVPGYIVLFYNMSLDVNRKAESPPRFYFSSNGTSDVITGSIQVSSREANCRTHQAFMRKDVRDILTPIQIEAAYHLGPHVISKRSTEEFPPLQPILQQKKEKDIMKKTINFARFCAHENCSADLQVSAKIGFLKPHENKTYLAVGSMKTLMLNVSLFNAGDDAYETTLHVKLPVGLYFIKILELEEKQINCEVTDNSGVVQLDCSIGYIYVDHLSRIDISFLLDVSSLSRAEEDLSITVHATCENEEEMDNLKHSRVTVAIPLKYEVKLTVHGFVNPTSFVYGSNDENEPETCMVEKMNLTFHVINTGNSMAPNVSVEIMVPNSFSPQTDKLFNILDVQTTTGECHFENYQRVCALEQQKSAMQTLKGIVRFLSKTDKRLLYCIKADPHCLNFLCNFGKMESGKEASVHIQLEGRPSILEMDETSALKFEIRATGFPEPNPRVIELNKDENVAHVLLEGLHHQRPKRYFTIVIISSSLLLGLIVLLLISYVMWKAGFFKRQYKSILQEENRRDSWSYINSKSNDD
measure.name: inhibition (%)

>  <compound>
Cc1ccccc1NC(=O)Nc1ccc(CC(=O)N[C@@H](CC(C)C)C(=O)N2CCCC(CCC(=O)O)C2)cc1 (stereo partly drawn)

>  <assay.target>
Integrin alpha-4/beta-1 (Homo sapiens, UniProt P05556+P13612)

>  <experimental.result>
77

$$$$
>  <compound>
Cc1ccccc1NC(=O)Nc1ccc(CC(=O)N[C@@H](CC(C)C)C(=O)N2CCCCC2C(=O)O)cc1 (stereo partly drawn)

>  <assay.target>
Integrin alpha-4/beta-1 (Homo sapiens, UniProt P05556+P13612)

>  <experimental.result>
49

$$$$
>  <compound>
Cc1ccccc1NC(=O)Nc1ccc(CC(=O)N[C@@H](CC(C)C)C(=O)N2CCCC(C(=O)O)C2)cc1 (stereo partly drawn)

>  <assay.target>
Integrin alpha-4/beta-1 (Homo sapiens, UniProt P05556+P13612)

>  <experimental.result>
25

$$$$
>  <compound>
Cc1ccccc1NC(=O)Nc1ccc(CC(=O)N[C@@H](CC(C)C)C(=O)N2CCCCC2C(C(=O)O)c2ccccc2)cc1 (stereo partly drawn)

>  <assay.target>
Integrin alpha-4/beta-1 (Homo sapiens, UniProt P05556+P13612)

>  <experimental.result>
99

$$$$
>  <compound>
Cc1ccccc1NC(=O)Nc1ccc(CC(=O)N[C@@H](CC(C)C)C(=O)N2CCCC(CC(=O)O)C2)cc1 (stereo partly drawn)

>  <assay.target>
Integrin alpha-4/beta-1 (Homo sapiens, UniProt P05556+P13612)

>  <experimental.result>
55

$$$$
>  <compound>
Cc1ccccc1NC(=O)Nc1ccc(CC(=O)N[C@@H](CC(C)C)C(=O)N2CCCCC2CC(=O)O)cc1 (stereo partly drawn)

>  <assay.target>
Integrin alpha-4/beta-1 (Homo sapiens, UniProt P05556+P13612)

>  <experimental.result>
100

$$$$
>  <compound>
Cc1ccccc1NC(=O)Nc1ccc(CC(=O)N[C@@H](CC(C)C)C(=O)N2CCC(C(=O)O)CC2)cc1

>  <assay.target>
Integrin alpha-4/beta-1 (Homo sapiens, UniProt P05556+P13612)

>  <experimental.result>
96

$$$$
>  <compound>
Cc1ccccc1NC(=O)Nc1ccc(CC(=O)N[C@@H](CC(C)C)C(=O)N2CCC(CC(=O)O)CC2)cc1

>  <assay.target>
Integrin alpha-4/beta-1 (Homo sapiens, UniProt P05556+P13612)

>  <experimental.result>
98

$$$$

###

molecular target: Integrin alpha-4/beta-1 (Homo sapiens, UniProt P05556+P13612); assay: Inhibition of VCAM-1 binding to integrin alpha4-beta1 of Jurkat cells
Reported IC50 values follow for various compounds
measure.name: IC50 (µM)

>  <compound>
Cc1ccccc1NC(=O)Nc1ccc(CC(=O)N[C@@H](CC(C)C)C(=O)N2CCCC(C(=O)O)C2)cc1 (stereo partly drawn)

>  <censoring.sign>
>

>  <experimental.result>
10

$$$$
>  <compound>
Cc1ccccc1NC(=O)Nc1ccc(CC(=O)N[C@@H](CC(C)C)C(=O)N2CCC(CC(=O)O)CC2)cc1

>  <censoring.sign>
=

>  <experimental.result>
0.55

$$$$
>  <compound>
Cc1ccccc1NC(=O)Nc1ccc(CC(=O)N[C@@H](CC(C)C)C(=O)N2CCC(C(=O)O)CC2)cc1

>  <censoring.sign>
=

>  <experimental.result>
4.7

$$$$
>  <compound>
Cc1ccccc1NC(=O)Nc1ccc(CC(=O)N[C@@H](CC(C)C)C(=O)N2CCCCC2C(C(=O)O)c2ccccc2)cc1 (stereo partly drawn)

>  <censoring.sign>
=

>  <experimental.result>
4.96

$$$$
>  <compound>
Cc1ccccc1NC(=O)Nc1ccc(CC(=O)N[C@@H](CC(C)C)C(=O)N2CCCC(CCC(=O)O)C2)cc1 (stereo partly drawn)

>  <censoring.sign>
=

>  <experimental.result>
6.74

$$$$
>  <compound>
Cc1ccccc1NC(=O)Nc1ccc(CC(=O)N[C@@H](CC(C)C)C(=O)N2CCCCC2CC(=O)O)cc1 (stereo partly drawn)

>  <censoring.sign>
=

>  <experimental.result>
0.3

$$$$
>  <compound>
Cc1ccccc1NC(=O)Nc1ccc(CC(=O)N[C@@H](CC(C)C)C(=O)N2CCCCC2C(=O)O)cc1 (stereo partly drawn)

>  <censoring.sign>
=

>  <experimental.result>
10

$$$$
>  <compound>
Cc1ccccc1NC(=O)Nc1ccc(CC(=O)N[C@@H](CC(C)C)C(=O)N2CCCC(CC(=O)O)C2)cc1 (stereo partly drawn)

>  <censoring.sign>
=

>  <experimental.result>
7.2

$$$$
